# Test system: HB3
# method notes: qHTS profiling for inhibitors of Plasmodium falciparum proliferation (AID 504749); also: nearly all actives have a fitted effect of over 60% in size
# conditions used: P. falciparum in erythrocytes, SYBR Green DNA, 72 h; series mostly up to 28.7 µM
# Description: NIH National Institute of Allergy and Infectious Diseases [NIAID] NIH Chemical Genomics Center [NCGC] […] Because mature erythrocytes lack DNA, only Plasmodium-derived DNA is detected. NCGC Assay Protocol Summary: The SYBR Green viability assay was adapted from a method described previously (Plouffe et al., 2008). […] The following morning, fluorescence intensity at 485(14) nm excitation and 535(25) nm emission wavelengths was measured on an EnVision (Perkin Elmer) plate reader. […]
Records with an inconclusive call do not appear. Active and inactive are the calls of the source. Calls follow the shape of the dose curve; as a rule, active = well fitted inhibition curve with a large enough effect; inconclusive = small, poorly fitted or top-dose-only effect; inactive = flat fitted curve, though single readings scatter.
Respond with a class label; see y (active), n (inactive)

Tell me the assay call for COc1cc2c(cc1OC)C(c1ccccc1)CN(C)CC2 (stereo not given) please.
n

I'd appreciate the recorded outcome for `C[C@@]12C(=O)OC(=O)[C@]1(C)[C@H]1CC[C@@H]2O1` from this test.
y

Assay result, entry CN1C[C@H](C(=O)N[C@]2(C)O[C@@]3(O)C4CCCN4C(=O)[C@H](Cc4ccccc4)N3C2=O)C[C@@H]2c3cccc4[nH]cc(c34)C[C@H]21 (stereo not given in full) — outcome?
y

What classification did `C=C1/C(=C\C=C2/CCC[C@]3(C)[C@@H]([C@H](C)CCCC(C)(C)O)CC[C@@H]23)C[C@@H](O)C[C@@H]1O` end up with in this test?
n

Hi, do you know how CN1C(=O)CCC1c1cccnc1 (stereo not given) came out in this test?
n
